The reported numbers originate from patent US11850247B2.

- TEST_TARGET: covalently-crosslinked hexameric CA A14C/E45C/W184A/M185A (CA121) (Human immunodeficiency virus type 1 group M subtype B, UniProt P12493, A146C/E177C/M317A/W316A)
- EXPERIMENTAL_DETAILS: Thermal shift assay (TSA), CA hexamer stability
- Assay type: binding, HIV-1
- EXPERIMENTAL_SETUP: compound 20 μM, ΔTm=Tm−T0 vs DMSO

| SAMPLE_SMILES | UNIT | TSA ΔTm (° C.) |
| --- | --- | --- |
| CN(C(=O)[C@H](Cc1ccccc1)NC(=O)CNC(=O)c1ccccc1)c1ccc(F)cc1 | °C | 2.2 |
| Cc1[nH]c2ccccc2c1CC(=O)N[C@@H](Cc1ccccc1)c1nccn1-c1ccc(C#N)cc1 | °C | 2.2 |
| COc1ccc(N(C)C(=O)[C@H](Cc2ccccc2)NC(=O)CN2C(=O)NC3(CCCCC3)C2=O)cc1 | °C | 1.8 |
| O=C(Cn1c(=O)[nH]c2ccccc2c1=O)N[C@@H](Cc1ccccc1)C(=O)N1CCC[C@H]1C(=O)Nc1ccccc1 | °C | 2.5 |

====

- TEST_TARGET: covalently-crosslinked hexameric CA A14C/E45C/W184A/M185A (CA121) (Human immunodeficiency virus type 1 group M subtype B, UniProt P12493, A146C/E177C/M317A/W316A)
- EXPERIMENTAL_DETAILS: Thermal shift assay (TSA), CA hexamer stability
- Type: binding, HIV-1
- EXPERIMENTAL_SETUP: compound 20 μM, ΔTm=Tm−T0 vs DMSO
List of TSA ΔTm (° C.) values.
ASSAY_READOUT: TSA ΔTm (° C.) (°C)

| COMPOUND | OBSERVED_VALUE |
| --- | --- |
| CN(C(=O)[C@H](Cc1ccccc1)NC(=O)Cn1c(=O)[nH]c2ccccc2c1=O)c1ccc(F)cc1 | 2.4 |
| O=C(Cn1cccn1)N[C@@H](Cc1ccccc1)c1ncccc1-c1ccccc1 | 1.1 |
| COc1ccc2[nH]cc(CC(=O)N[C@@H](Cc3ccccc3)c3nccn3-c3ccc(Cl)cc3)c2c1 | 4.0 |
| Cc1[nH]c2ccccc2c1CC(=O)N[C@@H](Cc1ccccc1)c1nccn1-c1ccccc1 | 3.9 |
| CN(C(=O)[C@H](Cc1ccccc1)NC(=O)Cc1ccc2ccccc2c1)c1ccccc1 | 4.8 |
| CN(C(=O)[C@H](Cc1ccccc1)NC(=O)Cc1ccc2ccccc2c1)c1cccc(Cl)c1 | 4.3 |
| COc1ccc2[nH]cc(CC(=O)N[C@@H](Cc3ccccc3)c3nccn3-c3ccc(Br)cc3)c2c1 | 2.8 |
| COc1ccc2[nH]cc(CC(=O)N[C@@H](Cc3ccccc3)c3ncccc3-c3ccc(Cl)cc3)c2c1 | 7.8 |
| CN(C(=O)[C@H](Cc1ccccc1)NC(=O)CN1C(=O)NC2(CCCCC2)C1=O)c1cccc(F)c1 | 1.3 |
| Cc1cn(CC(=O)N[C@@H](Cc2ccccc2)C(=O)N(C)c2cccc(Br)c2)c(=O)[nH]c1=O | 0.5 |
| Cc1ccc(C)c2c1NC(=O)C2CC(=O)N[C@@H](Cc1ccccc1)C(=O)N(C)c1ccc(F)cc1 (some centres unmarked) | −1.7 |
| CN(C(=O)[C@H](Cc1ccccc1)NC(=O)CN1C(=O)NC2(CCCCC2)C1=O)c1cccc(Br)c1 | 1.5 |
| CCN(C(=O)[C@H](Cc1ccccc1)NC(=O)CNC(=O)c1ccccc1)c1ccccc1 | −2.5 |
| CN(C(=O)[C@H](Cc1ccccc1)NC(=O)Cc1ccc2ccccc2c1)c1ccc(Cl)cc1 | 7.0 |
| CN(C(=O)[C@H](Cc1ccccc1)NC(=O)Cc1ccc2ccccc2c1)c1cccc(F)c1 | 5.2 |
| CN(C(=O)[C@H](Cc1ccccc1)NC(=O)CN1C(=O)NC2(CCCCC2)C1=O)c1ccc(Cl)cc1 | 2.2 |
| CN(C(=O)[C@H](Cc1ccccc1)NC(=O)Cc1cccc2ccccc12)c1ccccc1 | 6.0 |
| CN(C(=O)[C@H](Cc1ccccc1)NC(=O)Cc1cccc2ccccc12)c1ccc(Cl)cc1 | 7.2 |
| CN(C(=O)[C@H](Cc1ccccc1)NC(=O)CNC(=O)c1ccccc1)c1ccc(Cl)cc1 | 4.1 |
| Cc1cccc2c1NC(=O)C2CC(=O)N[C@@H](Cc1ccccc1)C(=O)N(C)c1cccc(F)c1 (some centres unmarked) | −0.9 |
